This section presents binders with their documented IC80 (µg/ml) with constrains values.
Target: HIV Env of isolate C3347.c11 (clade AE) (HIV)
Test: cell-based or functional assay
Lab book: enter the figure in µg/mL, no units written.

- binder: "PGDM1400 (antibody, V domains shown) VH: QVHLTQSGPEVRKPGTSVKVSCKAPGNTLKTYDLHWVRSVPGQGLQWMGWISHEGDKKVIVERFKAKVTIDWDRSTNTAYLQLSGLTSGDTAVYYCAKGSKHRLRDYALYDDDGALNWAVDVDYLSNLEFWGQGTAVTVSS VL: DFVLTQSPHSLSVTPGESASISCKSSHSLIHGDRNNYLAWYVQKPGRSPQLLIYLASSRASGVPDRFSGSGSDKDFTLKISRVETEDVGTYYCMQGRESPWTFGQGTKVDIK"
  value.measured: 0.061
- binder: "ePGDM13 (antibody, V domains shown) VH: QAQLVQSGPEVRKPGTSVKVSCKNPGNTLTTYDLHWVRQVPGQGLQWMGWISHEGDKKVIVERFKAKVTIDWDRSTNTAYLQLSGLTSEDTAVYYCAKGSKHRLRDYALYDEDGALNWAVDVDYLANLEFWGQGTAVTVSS VL: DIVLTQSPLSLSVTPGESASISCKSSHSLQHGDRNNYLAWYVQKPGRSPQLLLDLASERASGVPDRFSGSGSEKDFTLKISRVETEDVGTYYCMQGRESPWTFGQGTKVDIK"
  value.measured: 0.037

Next binder, please.
// ePGDM5 (antibody, V domains shown) VH: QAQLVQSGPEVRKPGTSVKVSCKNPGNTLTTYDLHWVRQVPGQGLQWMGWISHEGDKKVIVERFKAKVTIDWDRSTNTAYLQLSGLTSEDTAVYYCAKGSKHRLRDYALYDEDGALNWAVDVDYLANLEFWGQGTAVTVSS VL: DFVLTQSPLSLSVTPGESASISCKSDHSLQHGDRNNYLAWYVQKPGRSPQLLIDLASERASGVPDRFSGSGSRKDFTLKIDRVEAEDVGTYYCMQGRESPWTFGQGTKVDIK : IC80 (µg/ml) with constrains value = 0.021

Data provenance: patent US20230134571A1
